# Test system: MCF10A
# TEST METHOD NOTES: percent viability (nuclei count relative to siNT); higher = more viable cells
# CONDITION DESCRIPTION: 20 nM; 72 h
MEASURED PROPERTY: percent viability
Put your answer as a value accompanied by its unit after it.

[
  {
    "ENTRY SEQUENCE": "AGGAAGCCCUGGAGGGGCUGGAG [hsa-miR-671-5p]",
    "percent viability": "45.3%"
  },
  {
    "ENTRY SEQUENCE": "UGCAGGACCAAGAUGAGCCCU [hsa-miR-1286]",
    "percent viability": "35.9%"
  },
  {
    "ENTRY SEQUENCE": "UGCUGCCUCUCCUCUUGCCUGCAG [hsa-miR-6882-3p]",
    "percent viability": "45.6%"
  },
  {
    "ENTRY SEQUENCE": "AAGGGGGAAGGAAACAUGGAGA [hsa-miR-4716-3p]",
    "percent viability": "21.3%"
  },
  {
    "ENTRY SEQUENCE": "UAGAUCUUUGACUCUGGCAGUCUCCAGG [hsa-miR-7161-3p]",
    "percent viability": "87.7%"
  },
  {
    "ENTRY SEQUENCE": "UAGGUGGCGCCGGAGGAGUCAUU [hsa-miR-6815-5p]",
    "percent viability": "13.2%"
  }
]

Request: percent viability, test system MCF10A, entry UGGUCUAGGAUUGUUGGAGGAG [hsa-miR-601]
58.5%

Request: percent viability, test system MCF10A, entry ACCGAAGACUGUGCGCUAAUCU [hsa-miR-4671-5p]
99.3%

Request: percent viability, test system MCF10A, entry UGAGGACAGGGCAAAUUCACGA [hsa-miR-5004-5p]
36%

Request: percent viability, test system MCF10A, entry UGUCUCUGCUGGGGUUUCU [hsa-miR-593-3p]
18.1%

Request: percent viability, test system MCF10A, entry AACAUUCAUUGUUGUCGGUGGGU [hsa-miR-181d]
91.1%

Request: percent viability, test system MCF10A, entry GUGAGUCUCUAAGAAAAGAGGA [hsa-miR-627]
62.9%

Request: percent viability, test system MCF10A, entry AAGUCCCACUAAUGCCAGC [hsa-miR-5588-3p]
42.5%

Request: percent viability, test system MCF10A, entry GAGGUUUUCUGGGUUUCUGUUUC [hsa-miR-329-5p]
56%

Request: percent viability, test system MCF10A, entry UGAGUGACAGGGGAAAUGGGGA [hsa-miR-1236-5p]
36.9%

Request: percent viability, test system MCF10A, entry UCACAGUGGUCUCUGGGAUUAU [hsa-miR-216a-3p]
29.5%

Request: percent viability, test system MCF10A, entry UAGUGAGUUAGAGAUGCAGAGCC [hsa-miR-3174]
38.1%

Request: percent viability, test system MCF10A, entry UCAAUCACUUGGUAAUUGCUGU [hsa-miR-4705]
53.1%

Request: percent viability, test system MCF10A, entry AGCUGAGCUCCAUGGACGUGCAGU [hsa-miR-4663]
67%

Request: percent viability, test system MCF10A, entry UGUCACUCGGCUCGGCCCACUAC [hsa-miR-668]
60.6%

Request: percent viability, test system MCF10A, entry UUGGACUUUUUCAGAUUUGGGGAU [hsa-miR-5009-5p]
43.5%

Request: percent viability, test system MCF10A, entry UUUUUCAUUAUUGCUCCUGACC [hsa-miR-335-3p]
157%

Request: percent viability, test system MCF10A, entry AAUAAUAUCACAGUAGGUGU [hsa-miR-5692b]
155%

Request: percent viability, test system MCF10A, entry AGGGGACUGGUUAAUAGAACUA [hsa-miR-4652-5p]
14.5%

====

# System: MCF10A
# TEST METHOD NOTES: one-nucleolus phenotype percent effect (relative to siNT 0% and siNOL11 100%); higher = more cells with one nucleolus (ribosome biogenesis inhibition)
# CONDITION DESCRIPTION: 20 nM; 72 h
Recorded one-nucleolus phenotype percent effect, one value per entry.
Quick note: give the figure in %, leave out the unit.

The examples below pair each entry with its known result.
[
  {
    "ENTRY SEQUENCE": "UCCAGUGCCCUCCUCUCC [hsa-miR-1825]",
    "RESULT UNITS": "%",
    "one-nucleolus phenotype percent effect": -8.72
  },
  {
    "ENTRY SEQUENCE": "CAAACCACACUGUGGUGUUAGA [hsa-miR-497-3p]",
    "RESULT UNITS": "%",
    "one-nucleolus phenotype percent effect": -11.5
  },
  {
    "ENTRY SEQUENCE": "GUUCUGUUAACCCAUCCCCUCA [hsa-miR-4652-3p]",
    "RESULT UNITS": "%",
    "one-nucleolus phenotype percent effect": 16
  },
  {
    "ENTRY SEQUENCE": "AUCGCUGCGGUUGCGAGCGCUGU [hsa-miR-639]",
    "RESULT UNITS": "%",
    "one-nucleolus phenotype percent effect": -17.2
  }
]

Endpoint output: one-nucleolus phenotype percent effect of CGGCCCCACGCACCAGGGUAAGA [hsa-miR-874-5p] . Value?
-19.8

Endpoint output: one-nucleolus phenotype percent effect of CCUGUGCUCCCAGGGCCUCGC [hsa-miR-5008-3p] . Value?
-14.5

====

Recorded one-nucleolus phenotype percent effect, one value per entry.
# Test system: MCF10A
# TEST METHOD NOTES: one-nucleolus phenotype percent effect (relative to siNT 0% and siNOL11 100%); higher = more cells with one nucleolus (ribosome biogenesis inhibition)
# CONDITION DESCRIPTION: 20 nM; 72 h
Quick note: give the figure in %, leave out the unit.

The examples below pair each entry with its known result.
[
  {
    "ENTRY SEQUENCE": "GCUAUUUCACGACACCAGGGUU [hsa-miR-138-2-3p]",
    "one-nucleolus phenotype percent effect / %": 4.26
  },
  {
    "ENTRY SEQUENCE": "UCAUUAUAUGUAUGAUCUGGAC [hsa-miR-4528]",
    "one-nucleolus phenotype percent effect / %": -16.8
  },
  {
    "ENTRY SEQUENCE": "AGGACCUUCCCUGAACCAAGGA [hsa-miR-659-5p]",
    "one-nucleolus phenotype percent effect / %": 34.3
  },
  {
    "ENTRY SEQUENCE": "AGCUUCUUUACAGUGCUGCCUUG [hsa-miR-103a-2-5p]",
    "one-nucleolus phenotype percent effect / %": 7.49
  },
  {
    "ENTRY SEQUENCE": "ACAACAGUGACUUGCUCUCCAA [hsa-miR-4709-5p]",
    "one-nucleolus phenotype percent effect / %": 3.79
  }
]

Endpoint output: one-nucleolus phenotype percent effect of CAGCGGAGCCUGGAGAGAAGG [hsa-miR-7846-3p] . Value?
11.9

====

# System: MCF10A
# TEST METHOD NOTES: 5+ nucleoli phenotype percent effect (relative to siNT 0% and siKIF11 100%); higher = more cells with five or more nucleoli
# CONDITION DESCRIPTION: 20 nM; 72 h
MEASURED PROPERTY: 5+ nucleoli phenotype percent effect (%)
Quick note: give the figure in %, leave out the unit.

[
  {
    "ENTRY SEQUENCE": "CAGUUAUCACAGUGCUGAUGCU [hsa-miR-101-5p]",
    "RECORDED VALUE": -23.5
  },
  {
    "ENTRY SEQUENCE": "UUGCUUGAACCCAGGAAGUGGA [hsa-miR-1273e]",
    "RECORDED VALUE": -48.1
  },
  {
    "ENTRY SEQUENCE": "CACAUAUGAAGUGAGCCAGCAC [hsa-miR-5580-3p]",
    "RECORDED VALUE": -31.6
  },
  {
    "ENTRY SEQUENCE": "UUGGGGUUUGGGGUGCAGACAUUGC [hsa-miR-6855-5p]",
    "RECORDED VALUE": -2.12
  }
]

Endpoint output: 5+ nucleoli phenotype percent effect of UACGUAGAUAUAUAUGUAUUUU [hsa-miR-1277-3p] . Value?
41.8

Endpoint output: 5+ nucleoli phenotype percent effect of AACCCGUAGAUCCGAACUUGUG [hsa-miR-100-5p] . Value?
-0.958

Endpoint output: 5+ nucleoli phenotype percent effect of CUGGGAGAGGGUUGUUUACUCC [hsa-miR-30c-1-3p] . Value?
-21.9

Endpoint output: 5+ nucleoli phenotype percent effect of UCUCUCUGACUCCAUGGCA [hsa-miR-6817-3p] . Value?
1.83

Endpoint output: 5+ nucleoli phenotype percent effect of GUGUGACCACCGUUCCUGCAG [hsa-miR-6808-3p] . Value?
-25.4

Endpoint output: 5+ nucleoli phenotype percent effect of UCAGGACACUUCUGAACUUGGA [hsa-miR-5000-3p] . Value?
20.7

Endpoint output: 5+ nucleoli phenotype percent effect of GCAGCCCAGCUGAGGCCUCUG [hsa-miR-4690-3p] . Value?
21.1

Origin of measurements: the supplement of paper PMC10899765
